Reference for the values: ChEMBL document CHEMBL3994597

- Test system: MCF7
- Assay Explanation: Cytotoxicity against multidrug resistant human MCF7 cells cultured in vinblastine free medium assessed as growth inhibition after 72 hrs by SRB assay
- Type: functional, cell-based
- Test Context: MCF7, 72 h

Molecule Smiles	IC50
C/C=C(\C)C(=O)O[C@@H]1[C@H](O)[C@@H](O)[C@H](O[C@@H]2[C@@H](O)[C@@H](OC(=O)/C(C)=C/C)[C@H](O[C@H]3[C@@H]4O[C@H]5[C@H](O[C@@H](CCC)CCCCCCCCCC(=O)O[C@H]3[C@H](O)[C@@H](CO)O4)O[C@H](C)[C@@H](O)[C@@H]5O)O[C@H]2C)O[C@@H]1C	> 20000 nM
COc1cc([C@@H]2c3cc4c(cc3[C@H](O)[C@H]3COC(=O)[C@H]23)OCO4)cc(OC)c1OC	200 nM

* * *

- Species on record: Homo sapiens
- Assay Explanation: Inhibition of multidrug resistance efflux pump in multidrug resistant human MCF7 cells cultured in vinblastine free medium assessed as potentiation of vinblastine-induced cytotoxicity by measuring fold reduction in vinblastine IC50 at 25 ug/ml after 72 hrs by SRB assay relative to vinblastine alone
Assay Metric: fold change (FC)

Molecule Smiles	Assay Metric	Relational Operator	Recorded Measurement
C/C=C(\C)C(=O)O[C@@H]1[C@H](O)[C@@H](O)[C@H](O[C@@H]2[C@@H](O)[C@@H](OC(=O)/C(C)=C/C)[C@H](O[C@H]3[C@@H]4O[C@H]5[C@H](O[C@@H](CCC)CCCCCCCCCC(=O)O[C@H]3[C@H](O)[C@@H](CO)O4)O[C@H](C)[C@@H](O)[C@@H]5O)O[C@H]2C)O[C@@H]1C	fold change (FC)	=	5
C/C=C(\C)C(=O)O[C@H]1[C@H](O[C@H]2[C@@H]3O[C@H]4[C@H](O[C@@H](CCC)CCCCCCCCCC(=O)O[C@H]5[C@H](O[C@H]6[C@H](OC[C@@H](O3)[C@@H](O)[C@@H]2O)O[C@H](C)[C@@H](O)[C@@H]6O)O[C@@H](C)[C@H](O)[C@H]5O)O[C@H](C)[C@@H](O)[C@@H]4O)O[C@@H](C)[C@H](O)[C@H]1O	fold change (FC)	=	1700
C/C=C(\C)C(=O)O[C@@H]1[C@H](O)[C@@H](O)[C@H](O[C@@H]2[C@@H](O)[C@@H](OC(=O)/C(C)=C/C)[C@H](O[C@H]3[C@@H]4O[C@H]5[C@H](O[C@@H](CCCCC)CCCCCCCCCC(=O)O[C@H]3[C@H](O)[C@@H](CO)O4)O[C@H](C)[C@@H](O)[C@@H]5O)O[C@H]2C)O[C@@H]1C	fold change (FC)	>	1980
C/C=C(\C)C(=O)O[C@H]1[C@@H]2O[C@H]3[C@H](O[C@@H](CCC)CCCCCCCCCC(=O)O[C@@H]4[C@@H](O)[C@H](C)O[C@@H](O[C@H]5[C@H](O)[C@@H](C)O[C@@H](O[C@H]([C@H]1O)[C@H](C)O2)[C@@H]5O[C@@H]1O[C@@H](C)[C@H](O)[C@@H](O)[C@H]1OC(=O)[C@H](C)[C@@H](C)O)[C@@H]4O)O[C@H](C)[C@@H](O)[C@@H]3O	fold change (FC)	=	283
CCC[C@H]1CCCCCCCCCC(=O)O[C@H]2[C@H](OC[C@H]3O[C@@H](O[C@H]4[C@H](O1)O[C@H](C)[C@@H](O)[C@@H]4O)[C@H](O[C@@H]1O[C@@H](C)[C@H](OC(C)=O)[C@@H](O)[C@H]1O)[C@@H](O)[C@@H]3O)O[C@H](C)[C@@H](O)[C@@H]2OC(=O)[C@H](C)[C@@H](C)O	fold change (FC)	=	1
CCC[C@H]1CCCCCCCCCC(=O)O[C@H]2[C@H](O[C@H]3[C@H](O)[C@@H](C)O[C@@H](O[C@H]4[C@H](O1)O[C@H](C)[C@@H](O)[C@@H]4O)[C@@H]3O[C@@H]1O[C@@H](C)[C@H](OC(C)=O)[C@@H](O)[C@H]1O)O[C@H](C)[C@@H](O)[C@@H]2OC(=O)[C@H](C)[C@@H](C)O	fold change (FC)	=	322
